target: UDP-N-acetylglucosamine 1-carboxyvinyltransferase (Escherichia coli K-12, UniProt P0A749); experiment: Inhibition of recombinant Escherichia coli MurA expressed in Escherichia coli NiCo21 using UNAG and PEP as substrate preincubated for 30 mins in presence of UNAG followed by PEP substrate addition and measured after 15 mins by malachite green based colorimetric assay
Sequence (P0A749 whole entry): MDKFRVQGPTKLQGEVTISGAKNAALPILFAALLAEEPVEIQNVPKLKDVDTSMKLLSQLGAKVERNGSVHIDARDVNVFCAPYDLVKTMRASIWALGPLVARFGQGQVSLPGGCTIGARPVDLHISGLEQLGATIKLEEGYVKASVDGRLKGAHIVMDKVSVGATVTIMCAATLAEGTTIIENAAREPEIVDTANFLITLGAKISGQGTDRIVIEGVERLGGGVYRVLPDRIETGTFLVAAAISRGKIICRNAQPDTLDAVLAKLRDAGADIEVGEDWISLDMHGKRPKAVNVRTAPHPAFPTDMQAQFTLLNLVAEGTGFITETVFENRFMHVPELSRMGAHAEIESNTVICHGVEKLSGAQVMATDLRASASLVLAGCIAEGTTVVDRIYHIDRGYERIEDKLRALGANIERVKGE
assay endpoint: IC50 (µM)
Give bare numbers, in µM.

>>> reading("O=C(CCl)N1CCC(N2CCC(Br)C2=O)C1 (stereo not drawn)")
263
>>> reading("O=C(CCl)NC1CCCC2CCCCC21 (stereo not drawn)")
39

Pending molecule:
Query string: May I ask what IC50 has been recorded for O=C(CCl)N1CCC(COP(=O)(Oc2ccccc2)Oc2ccccc2)C1 (stereo not drawn) ?
Result string: 311
